List of viability at 48 h, 50 ug/ml values.
# assay notes: Cytotoxicity against Mycobacterium bovis Bacillus Calmette-Guerin infected mouse J774 cells assessed as cell viability at 50 ug/ml after 48 hrs by MTT assay
# Format: cell-based
# measurement parameters: read-out: Activity

- compound: "O=C(N/N=C/c1cccc(O)c1)c1cnccn1"
  viability at 48 h, 50 ug/ml [%]: 73
- compound: "O=C(N/N=C/c1ccc(Br)cc1)c1cnccn1"
  viability at 48 h, 50 ug/ml [%]: 52
- compound: "CCN(CC)c1ccc(/C=N/NC(=O)c2cnccn2)cc1"
  viability at 48 h, 50 ug/ml [%]: 85
- compound: "O=C(N/N=C/c1cccc(Cl)c1)c1cnccn1"
  viability at 48 h, 50 ug/ml [%]: 100
- compound: "N#Cc1cccc(/C=N/NC(=O)c2cnccn2)c1"
  viability at 48 h, 50 ug/ml [%]: 100
- compound: "O=C(N/N=C/c1cccc([N+](=O)[O-])c1)c1cnccn1"
  viability at 48 h, 50 ug/ml [%]: 92
- compound: "CN(C)c1ccc(/C=N/NC(=O)c2cnccn2)cc1"
  viability at 48 h, 50 ug/ml [%]: 80
- compound: "O=C(N/N=C/c1ccccc1)c1cnccn1"
  viability at 48 h, 50 ug/ml [%]: 100
- compound: "N#Cc1ccccc1/C=N/NC(=O)c1cnccn1"
  viability at 48 h, 50 ug/ml [%]: 80
- compound: "O=C(N/N=C/c1ccccc1F)c1cnccn1"
  viability at 48 h, 50 ug/ml [%]: 100
- compound: "CCOc1ccc(/C=N/NC(=O)c2cnccn2)cc1"
  viability at 48 h, 50 ug/ml [%]: 90
- compound: "O=C(N/N=C/c1cccc(Br)c1)c1cnccn1"
  viability at 48 h, 50 ug/ml [%]: 87
- compound: "NC(=O)c1cnccn1 [PYRAZINAMIDE]"
  viability at 48 h, 50 ug/ml [%]: 92

---

# assay notes: Cytotoxicity against mouse J774 cells assessed as cell viability at 50 ug/ml after 48 hrs by MTT assay
# Format: cell-based
# measurement parameters: read-out: Activity

- smiles code: "CCOc1cccc(/C=N/NC(=O)c2cnccn2)c1"
  value units: "%"
  viability at 48 h, 50 ug/ml: 74
- smiles code: "N#Cc1cccc(/C=N/NC(=O)c2cnccn2)c1"
  value units: "%"
  viability at 48 h, 50 ug/ml: 100
- smiles code: "COc1ccccc1/C=N/NC(=O)c1cnccn1"
  value units: "%"
  viability at 48 h, 50 ug/ml: 97
- smiles code: "CCOc1ccc(/C=N/NC(=O)c2cnccn2)cc1"
  value units: "%"
  viability at 48 h, 50 ug/ml: 100
- smiles code: "O=C(N/N=C/c1cccc(O)c1)c1cnccn1"
  value units: "%"
  viability at 48 h, 50 ug/ml: 100
- smiles code: "O=C(N/N=C/c1ccc([N+](=O)[O-])cc1)c1cnccn1"
  value units: "%"
  viability at 48 h, 50 ug/ml: 50
- smiles code: "N#Cc1ccc(/C=N/NC(=O)c2cnccn2)cc1"
  value units: "%"
  viability at 48 h, 50 ug/ml: 100
- smiles code: "O=C(N/N=C/c1ccccc1)c1cnccn1"
  value units: "%"
  viability at 48 h, 50 ug/ml: 100
- smiles code: "COc1ccc(/C=N/NC(=O)c2cnccn2)cc1"
  value units: "%"
  viability at 48 h, 50 ug/ml: 74
- smiles code: "CN(C)c1ccc(/C=N/NC(=O)c2cnccn2)cc1"
  value units: "%"
  viability at 48 h, 50 ug/ml: 93
- smiles code: "O=C(N/N=C/c1ccccc1F)c1cnccn1"
  value units: "%"
  viability at 48 h, 50 ug/ml: 100
- smiles code: "O=C(N/N=C/c1ccccc1O)c1cnccn1"
  value units: "%"
  viability at 48 h, 50 ug/ml: 1
- smiles code: "O=C(N/N=C/c1cccc([N+](=O)[O-])c1)c1cnccn1"
  value units: "%"
  viability at 48 h, 50 ug/ml: 100
- smiles code: "O=C(N/N=C/c1ccccc1[N+](=O)[O-])c1cnccn1"
  value units: "%"
  viability at 48 h, 50 ug/ml: 90
- smiles code: "O=C(N/N=C/c1cccc(Cl)c1)c1cnccn1"
  value units: "%"
  viability at 48 h, 50 ug/ml: 100
- smiles code: "O=C(N/N=C/c1ccc(F)cc1)c1cnccn1"
  value units: "%"
  viability at 48 h, 50 ug/ml: 78
- smiles code: "N#Cc1ccccc1/C=N/NC(=O)c1cnccn1"
  value units: "%"
  viability at 48 h, 50 ug/ml: 92
- smiles code: "CCN(CC)c1ccc(/C=N/NC(=O)c2cnccn2)cc1"
  value units: "%"
  viability at 48 h, 50 ug/ml: 97
- smiles code: "O=C(N/N=C/c1ccc(O)cc1)c1cnccn1"
  value units: "%"
  viability at 48 h, 50 ug/ml: 100
- smiles code: "O=C(N/N=C/c1ccc(Cl)cc1)c1cnccn1"
  value units: "%"
  viability at 48 h, 50 ug/ml: 83

Hey, just so you know, these numbers are from ChEMBL document CHEMBL1155238.
